Bliss excess by entry:
# Tested on: OCI-AML2 (Acute Myeloid Leukemia)
# procedure details: Bliss excess, mean over the matrix (fraction); higher = more synergy;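 note: after 72 h of two-drug dosing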
assay metric: Bliss excess

compound	assay metric	reading
CN(CCO)CC[C@H](CSc1ccccc1)Nc1ccc(S(=O)(=O)NC(=O)c2ccc(N3CCC([C@@H](O)c4ccccc4-c4ccc(Cl)cc4)CC3)cc2)cc1S(=O)(=O)C(F)(F)F [AZD4320] + Cc1cc2ncnn2cc1Nc1ncc2c(n1)n(C1CCOCC1)c(=O)n2C [AZD7648] (first compound max 1 µM, 7x7, partner max 10 µM)	Bliss excess	0.0136
Cc1c2c(nn1C)CSCc1cc(n(C)n1)CSc1cc(c3ccccc3c1)OCCCc1c(C(=O)O)n(C)c3c-2c(Cl)ccc13 [AZD5991] + Cc1cc2ncnn2cc1Nc1ncc2c(n1)n(C1CCOCC1)c(=O)n2C [AZD7648] (first compound max 1 µM, 7x7, partner max 10 µM)	Bliss excess	0.019
Cc1c2c(nn1C)CSCc1cc(n(C)n1)CSc1cc(c3ccccc3c1)OCCCc1c(C(=O)O)n(C)c3c-2c(Cl)ccc13 [AZD5991] + CC(=O)O[C@H]1C(=O)[C@@]2(C)[C@H]([C@H](OC(=O)c3ccccc3)[C@]3(O)C[C@H](OC(=O)[C@H](O)[C@@H](NC(=O)c4ccccc4)c4ccccc4)C(C)=C1C3(C)C)[C@]1(OC(C)=O)CO[C@@H]1C[C@@H]2O [Paclitaxel] (first compound max 1 µM, 7x7, partner max 3 µM)	Bliss excess	-0.0046
CN(CCO)CC[C@H](CSc1ccccc1)Nc1ccc(S(=O)(=O)NC(=O)c2ccc(N3CCC([C@@H](O)c4ccccc4-c4ccc(Cl)cc4)CC3)cc2)cc1S(=O)(=O)C(F)(F)F [AZD4320] + CS(=O)(=O)CCNCc1ccc(-c2ccc3ncnc(Nc4ccc(OCc5cccc(F)c5)c(Cl)c4)c3c2)o1 [Lapatinib] (first compound max 1 µM, 7x7, partner max 10 µM)	Bliss excess	0.0843
COc1nnc2ccc(N3CCC(c4ccc(OCCN5CCN(C)C(=O)[C@H]5C)cc4)CC3)nn12 [AZD5153] + C=CCn1c(=O)c2cnc(Nc3ccc(N4CCN(C)CC4)cc3)nc2n1-c1cccc(C(C)(C)O)n1 [AZD1775] (first compound max 1 µM, partner max 1 µM)	Bliss excess	-0.0293
CC1(C)CCC(CN2CCN(c3ccc(C(=O)NS(=O)(=O)c4ccc(NCC5CCOCC5)c([N+](=O)[O-])c4)c(Oc4cnc5[nH]ccc5c4)c3)CC2)=C(c2ccc(Cl)cc2)C1 [Venetoclax] + CS(=O)(=O)CCNCc1ccc(-c2ccc3ncnc(Nc4ccc(OCc5cccc(F)c5)c(Cl)c4)c3c2)o1 [Lapatinib] (first compound max 1 µM, 7x7, partner max 10 µM)	Bliss excess	0.0327

----------
# Bliss excess listing for each entry below
# Test system: NCI-H2595 (Mesothelioma)
# procedure details: Bliss excess, mean over the matrix (fraction); higher = more synergy

molecule	Bliss excess
CCc1c2c(nc3ccc(O)cc13)-c1cc3c(c(=O)n1C2)COC(=O)[C@]3(O)CC [SN-38] + O=C(c1cc(Cc2n[nH]c(=O)c3ccccc23)ccc1F)N1CCN(C(=O)C2CC2)CC1 [Olaparib] (first compound max 0.3 µM, 7x7, partner max 10 µM)	0.0184
Cc1cc2ncnn2cc1Nc1ncc2c(n1)n(C1CCOCC1)c(=O)n2C [AZD7648] + C=CCn1c(=O)c2cnc(Nc3ccc(N4CCN(C)CC4)cc3)nc2n1-c1cccc(C(C)(C)O)n1 [AZD1775] (first compound max 10 µM, partner max 1 µM)	-0.0242
Cc1cc2ncnn2cc1Nc1ncc2c(n1)n(C1CCOCC1)c(=O)n2C [AZD7648] + CN(C)CCCOc1ccc(-c2ccc3ncc4c(c3c2)n(C2CCOCC2)c(=O)n4C)cn1 [AZD0156] (first compound max 10 µM, 7x7, partner max 1 µM)	-0.0373
CCN(CCO)CCCOc1ccc2c(Nc3cc(CC(=O)Nc4cccc(F)c4)[nH]n3)ncnc2c1 [AZD2811] + C[C@@H]1COCCN1C2=NC(=NC(=C2)C3(CC3)[S@](=N)(=O)C)C4=C5C=CNC5=NC=C4 [AZD6738] (first compound max 1 µM, 7x7, partner max 10 µM)	-0.0491
O=C(c1cc(Cc2n[nH]c(=O)c3ccccc23)ccc1F)N1CCN(C(=O)C2CC2)CC1 [Olaparib] + CC1(C)CCC(CN2CCN(c3ccc(C(=O)NS(=O)(=O)c4ccc(NCC5CCOCC5)c([N+](=O)[O-])c4)c(Oc4cnc5[nH]ccc5c4)c3)CC2)=C(c2ccc(Cl)cc2)C1 [Venetoclax] (first compound max 10 µM, 7x7, partner max 1 µM)	-0.0577
COc1cccc(OCCCN)c1-c1cc(Nc2cnc(C#N)cn2)n[nH]1 [Prexasertib] + O=C(c1cc(Cc2n[nH]c(=O)c3ccccc23)ccc1F)N1CCN(C(=O)C2CC2)CC1 [Olaparib] (first compound max 1 µM, 7x7, partner max 10 µM)	-0.0053
Cc1c2c(nn1C)CSCc1cc(n(C)n1)CSc1cc(c3ccccc3c1)OCCCc1c(C(=O)O)n(C)c3c-2c(Cl)ccc13 [AZD5991] + CCN(CCO)CCCOc1ccc2c(Nc3cc(CC(=O)Nc4cccc(F)c4)[nH]n3)ncnc2c1 [AZD2811] (first compound max 1 µM, 7x7, partner max 1 µM)	0.0141
NC1(C(=O)N[C@@H](CCO)c2ccc(Cl)cc2)CCN(c2ncnc3[nH]ccc23)CC1 [Capivasertib] + CC(C)n1c(=O)n(C)c2cnc3cc(F)c(-c4ccc(OCCCN5CCCCC5)nc4)cc3c21 [AZD1390] (first compound max 10 µM, 7x7, partner max 0.3 µM)	-0.0609
Cc1cc2ncnn2cc1Nc1ncc2c(n1)n(C1CCOCC1)c(=O)n2C [AZD7648] + CCN(CCO)CCCOc1ccc2c(Nc3cc(CC(=O)Nc4cccc(F)c4)[nH]n3)ncnc2c1 [AZD2811] (first compound max 10 µM, 7x7, partner max 1 µM)	0.0183
O=C(c1cc(Cc2n[nH]c(=O)c3ccccc23)ccc1F)N1CCN(C(=O)C2CC2)CC1 [Olaparib] + COc1nnc2ccc(N3CCC(c4ccc(OCCN5CCN(C)C(=O)[C@H]5C)cc4)CC3)nn12 [AZD5153] (first compound max 10 µM, 7x7, partner max 1 µM)	-0.12
COc1cc2ncnc(Nc3ccc(F)c(Cl)c3)c2cc1OCCCN1CCOCC1 [Gefitinib] + CC(C)n1c(=O)n(C)c2cnc3cc(F)c(-c4ccc(OCCCN5CCCCC5)nc4)cc3c21 [AZD1390] (first compound max 10 µM, 7x7, partner max 0.3 µM)	-0.0596
CN(CCO)CC[C@H](CSc1ccccc1)Nc1ccc(S(=O)(=O)NC(=O)c2ccc(N3CCC([C@@H](O)c4ccccc4-c4ccc(Cl)cc4)CC3)cc2)cc1S(=O)(=O)C(F)(F)F [AZD4320] + CC(=O)O[C@H]1C(=O)[C@@]2(C)[C@H]([C@H](OC(=O)c3ccccc3)[C@]3(O)C[C@H](OC(=O)[C@H](O)[C@@H](NC(=O)c4ccccc4)c4ccccc4)C(C)=C1C3(C)C)[C@]1(OC(C)=O)CO[C@@H]1C[C@@H]2O [Paclitaxel] (first compound max 1 µM, 7x7, partner max 3 µM)	0.0192
C=CCn1c(=O)c2cnc(Nc3ccc(N4CCN(C)CC4)cc3)nc2n1-c1cccc(C(C)(C)O)n1 [AZD1775] + Nc1ccn([C@@H]2O[C@H](CO)[C@@H](O)C2(F)F)c(=O)n1 [Gemcitabine] (first compound max 1 µM, partner max 0.3 µM)	-0.0765

Origin of values: the supplement of paper PMC11061612
